assay: melting temperature; fluorescence melt of hairpins on a sequencing array, two-state fit, raised by 9.35 °C to match UV melts; settings: sodium 0.088 M
readout.name: Tm (°C)
Numbers only; they are read as °C.

Sample records with Tm:
GATCGTGGCACGATC ((((((...)))))) = 59.8
GACGGCGAAAGCCCAGTC ((((((....)))..))) = 41.8

Exam item: Tm lookup needed for GACATAGAAATATGTC ((((((....)))))) , thanks.
Marked response: 45.5

Exam item: Tm lookup needed for GCGAACGGAAACGCTCGC ((((.((....)).)))) , thanks.
Marked response: 55.7

Exam item: Tm lookup needed for GCGTATGGAAACGTATGC ((.((.(....).)).)) , thanks.
Marked response: 34.8

Exam item: Tm lookup needed for GTTTCAGGAAACTGAAAC (((((((....))))))) , thanks.
Marked response: 55.3

Exam item: Tm lookup needed for GATCGGGGAAACCCGACC (.(((((....))))).) , thanks.
Marked response: 43.5

Exam item: Tm lookup needed for GGGTTCGAAAGAACTCCC ((((((....)))..))) , thanks.
Marked response: 46.5

Exam item: Tm lookup needed for GATCAAGTGTTTGATC ((((((....)))))) , thanks.
Marked response: 43.5

Exam item: Tm lookup needed for GATCCGGGAAACTGGATC (((((.(....).))))) , thanks.
Marked response: 52.1

Exam item: Tm lookup needed for GGGTTACGAAAGTACCC (((.(((....)))))) , thanks.
Marked response: 54.3

Exam item: Tm lookup needed for GTTTAACCGAAAGGTAAC (((..(((....)))))) , thanks.
Marked response: 29.7

---

assay: melting temperature; fluorescence melt of hairpins on a sequencing array, two-state fit, raised by 9.35 °C to match UV melts; conditions: sodium 0.088 M
Tm for assorted sequences
Numbers only; they are read as °C.

GTACGTCGAAAGACCTAC (((.(((....))).))) = 34.3
GCGTATTGACGC ((((....)))) = 52.9

Exam item: Tm lookup needed for GATCGCAGAGGCGATC ((((((....)))))) , thanks.
Marked response: 66.8

Exam item: Tm lookup needed for GGGGGTGGAAACACCTCC ((.((((....)))).)) , thanks.
Marked response: 54.9

---

experiment: folding enthalpy; higher = less favourable; fluorescence melt of hairpins on a sequencing array, two-state fit; details: sodium 0.088 M
Class satisfied: folding enthalpy at least -20 kcal/mol. Class not satisfied: folding enthalpy below -20 kcal/mol.

GTATTCGAAAGAATAC ((((((....)))))) = not satisfied
GCCAGCGGAAACGCCAGC ((..(((....)))..)) = satisfied
GGCCCTGCGAAAGCAGCC (((..(((....)))))) = satisfied
GAAAGGCGAAAGCCTTC (((.(((....)))))) = satisfied
GATCTCGTCGGAGATC ((((((....)))))) = not satisfied
GCAAAGCGAAAGCCTAGC ((.(.((....)).).)) = satisfied
GATCTCCGACGAGATC ((((((....)))))) = not satisfied
GCGAAGCATCGC ((((....)))) = satisfied
GCGGACGAAAGTCGCCGC ((((((....)))..))) = satisfied
GCCCGTGGAAACACAGGC (((.(((....))).))) = not satisfied

Exam item: Does the reported folding enthalpy for GCGAACGTCGC ((((...)))) fall at or above the -20 kcal/mol mark?
Marked response: satisfied

Exam item: Does the reported folding enthalpy for GGCACAGGAAACTGTACC ((.((((....)))).)) fall at or above the -20 kcal/mol mark?
Marked response: not satisfied

Exam item: Does the reported folding enthalpy for GGAGGCGAAAGCCGATCC ((((((....)))..))) fall at or above the -20 kcal/mol mark?
Marked response: satisfied

Exam item: Does the reported folding enthalpy for GTGTCAGGAAACCGACAC (((((.(....).))))) fall at or above the -20 kcal/mol mark?
Marked response: not satisfied

Exam item: Does the reported folding enthalpy for GACATAACGAAAGTTGTC (((..(((....)))))) fall at or above the -20 kcal/mol mark?
Marked response: not satisfied

Exam item: Does the reported folding enthalpy for GGATATCGAAAGATCTCC (((.(((....))).))) fall at or above the -20 kcal/mol mark?
Marked response: not satisfied

Exam item: Does the reported folding enthalpy for GGTCGCGGAAACGCAACC (((.(((....))).))) fall at or above the -20 kcal/mol mark?
Marked response: not satisfied

Exam item: Does the reported folding enthalpy for GATCCTACGAAGGATC ((((((....)))))) fall at or above the -20 kcal/mol mark?
Marked response: not satisfied

The origin of these recorded values is the array DNA melting data of Ke et al. (doi:10.1101/2024.01.08.574731).
